Test: Half life for the spontaneous hydrolysis in buffer was measured
Format: ADME
measured.attribute: half-life (h)
Report as a plain number; the unit h is understood.

These solved cases illustrate the format of a correct answer.
Br.Br.NCCCC[C@H](N)C(=O)N1CCC[C@H]1P(=O)(Oc1ccccc1)Oc1ccccc1	52
C[C@H](N)C(=O)N1CCCCC1P(=O)(Oc1ccc(Cl)cc1)Oc1ccc(Cl)cc1 (mixture of isomers)	67
C[C@H](N)C(=O)N1CCCCC1P(=O)(Oc1ccc(F)cc1)Oc1ccc(F)cc1 (some centres not stated)	68
C[C@H](N)C(=O)N1CCC[C@H]1P(=O)(Oc1ccc(Cl)cc1)Oc1ccc(Cl)cc1	5.3

Name the recorded half-life for `C[C@H](N)C(=O)N1CCC[C@H]1P(=O)(Oc1ccccc1)Oc1ccccc1.Cl` . 23.1

* * *

K obs / 1 values recorded for Dipeptidyl peptidase 4 (Homo sapiens) (UniProt P27487)
Report as a plain number; the unit M⁻¹ s⁻¹ is understood.

C[C@H](N)C(=O)N1CCCCC1P(=O)(Oc1ccccc1)Oc1ccccc1 (stereo partly drawn)	12.6
C[C@H](N)C(=O)N1CCC[C@H]1P(=O)(Oc1ccc(Cl)cc1)Oc1ccc(Cl)cc1	28

Name the recorded K obs / 1 for `C[C@H](N)C(=O)N1CCC[C@H]1P(=O)(Oc1ccccc1)Oc1ccccc1.Cl` . 1.2

Name the recorded K obs / 1 for C[C@H](N)C(=O)N1CCCCC1P(=O)(Oc1ccc(Cl)cc1)Oc1ccc(Cl)cc1 (stereo partly drawn) . 1300

Name the recorded K obs / 1 for C[C@H](N)C(=O)N1CCCCC1P(=O)(Oc1ccc(Cl)cc1)Oc1ccc(Cl)cc1 (mixture of isomers) . 156

Name the recorded K obs / 1 for NCCCC[C@H](N)C(=O)N1CCCCC1P(=O)(Oc1ccccc1)Oc1ccccc1 (stereo partly drawn) . 4.2

Name the recorded K obs / 1 for C[C@H](N)C(=O)N1CCCCC1P(=O)(Oc1ccc(F)cc1)Oc1ccc(F)cc1 (stereo partly drawn) . 12

Name the recorded K obs / 1 for `Br.Br.NCCCC[C@H](N)C(=O)N1CCC[C@H]1P(=O)(Oc1ccccc1)Oc1ccccc1` . 1.7
